The molecules listed here are annotated with their MIC.
System: Streptococcus pneumoniae
Experiment: Antimicrobial activity against erythromycin-resistant Streptococcus pneumoniae B1 expressing the erm gene by broth microdilution method
Type: functional

>  <query_smiles>
CCCCNC(=O)O[C@H]1[C@H](C)O[C@@H](O[C@H]2[C@H](C)[C@@H](O[C@@H]3O[C@H](C)C[C@H](N(C)C)[C@H]3O)[C@](C)(OC)C[C@@H](C)C(=O)[C@H](C)[C@@H](O)[C@](C)(O)[C@@H](CC)OC(=O)[C@@H]2C)C[C@@]1(C)OC

>  <target_entity>
Streptococcus pneumoniae

>  <MIC [µg/mL]>
64

$$$$
>  <query_smiles>
CC[C@H]1OC(=O)[C@H](C)[C@@H](O[C@H]2C[C@@](C)(OC)[C@@H](OC(=O)NCCc3ccc4c(c3)OCO4)[C@H](C)O2)[C@H](C)[C@@H](O[C@@H]2O[C@H](C)C[C@H](N(C)C)[C@H]2O)[C@](C)(OC)C[C@@H](C)C(=O)[C@H](C)[C@@H](O)[C@]1(C)O

>  <target_entity>
Streptococcus pneumoniae

>  <MIC [µg/mL]>
32

$$$$
>  <query_smiles>
CC[C@H]1OC(=O)[C@H](C)[C@@H](O[C@H]2C[C@@](C)(OC)[C@@H](OC(=O)NCCCC(=O)NCc3ccc(F)cc3)[C@H](C)O2)[C@H](C)[C@@H](O[C@@H]2O[C@H](C)C[C@H](N(C)C)[C@H]2O)[C@](C)(OC)C[C@@H](C)C(=O)[C@H](C)[C@@H](O)[C@]1(C)O

>  <target_entity>
Streptococcus pneumoniae

>  <MIC [µg/mL]>
1

$$$$
>  <query_smiles>
CC[C@H]1OC(=O)[C@H](C)[C@@H](O[C@H]2C[C@@](C)(OC)[C@@H](OC(=O)NCc3ccc(OC)cc3)[C@H](C)O2)[C@H](C)[C@@H](O[C@@H]2O[C@H](C)C[C@H](N(C)C)[C@H]2O)[C@](C)(OC)C[C@@H](C)C(=O)[C@H](C)[C@@H](O)[C@]1(C)O

>  <target_entity>
Streptococcus pneumoniae

>  <MIC [µg/mL]>
16

$$$$
>  <query_smiles>
CCCCCNC(=O)CCCCCNC(=O)O[C@H]1[C@H](C)O[C@@H](O[C@H]2[C@H](C)[C@@H](O[C@@H]3O[C@H](C)C[C@H](N(C)C)[C@H]3O)[C@](C)(OC)C[C@@H](C)C(=O)[C@H](C)[C@@H](O)[C@](C)(O)[C@@H](CC)OC(=O)[C@@H]2C)C[C@@]1(C)OC

>  <target_entity>
Streptococcus pneumoniae

>  <MIC [µg/mL]>
128

$$$$
>  <query_smiles>
CC[C@H]1OC(=O)[C@H](C)[C@@H](O[C@H]2C[C@@](C)(OC)[C@@H](OC(=O)NCCCCCC(=O)NC3CCCCC3)[C@H](C)O2)[C@H](C)[C@@H](O[C@@H]2O[C@H](C)C[C@H](N(C)C)[C@H]2O)[C@](C)(OC)C[C@@H](C)C(=O)[C@H](C)[C@@H](O)[C@]1(C)O

>  <target_entity>
Streptococcus pneumoniae

>  <MIC [µg/mL]>
128

$$$$
>  <query_smiles>
CC[C@H]1OC(=O)[C@H](C)[C@@H](O[C@H]2C[C@@](C)(OC)[C@@H](OC(=O)NCCCC(=O)NC(C)C)[C@H](C)O2)[C@H](C)[C@@H](O[C@@H]2O[C@H](C)C[C@H](N(C)C)[C@H]2O)[C@](C)(OC)C[C@@H](C)C(=O)[C@H](C)[C@@H](O)[C@]1(C)O

>  <target_entity>
Streptococcus pneumoniae

>  <MIC [µg/mL]>
128

$$$$
>  <query_smiles>
CC[C@H]1OC(=O)[C@H](C)[C@@H](O[C@H]2C[C@@](C)(OC)[C@@H](OC(=O)NCCCCCC(=O)NCc3ccc(OC)cc3)[C@H](C)O2)[C@H](C)[C@@H](O[C@@H]2O[C@H](C)C[C@H](N(C)C)[C@H]2O)[C@](C)(OC)C[C@@H](C)C(=O)[C@H](C)[C@@H](O)[C@]1(C)O

>  <target_entity>
Streptococcus pneumoniae

>  <MIC [µg/mL]>
64

$$$$
>  <query_smiles>
CC[C@H]1OC(=O)[C@H](C)[C@@H](O[C@H]2C[C@@](C)(OC)[C@@H](OC(=O)NCc3ccccc3)[C@H](C)O2)[C@H](C)[C@@H](O[C@@H]2O[C@H](C)C[C@H](N(C)C)[C@H]2O)[C@](C)(OC)C[C@@H](C)C(=O)[C@H](C)[C@@H](O)[C@]1(C)O

>  <target_entity>
Streptococcus pneumoniae

>  <MIC [µg/mL]>
4

$$$$
>  <query_smiles>
CC[C@H]1OC(=O)[C@H](C)[C@@H](O[C@H]2C[C@@](C)(OC)[C@@H](OC(=O)NCCc3ccccc3Cl)[C@H](C)O2)[C@H](C)[C@@H](O[C@@H]2O[C@H](C)C[C@H](N(C)C)[C@H]2O)[C@](C)(OC)C[C@@H](C)C(=O)[C@H](C)[C@@H](O)[C@]1(C)O

>  <target_entity>
Streptococcus pneumoniae

>  <MIC [µg/mL]>
16

$$$$
>  <query_smiles>
CC[C@H]1OC(=O)[C@H](C)[C@@H](O[C@H]2C[C@@](C)(OC)[C@@H](OC(=O)NCCCC(=O)NC3CCCCC3)[C@H](C)O2)[C@H](C)[C@@H](O[C@@H]2O[C@H](C)C[C@H](N(C)C)[C@H]2O)[C@](C)(OC)C[C@@H](C)C(=O)[C@H](C)[C@@H](O)[C@]1(C)O

>  <target_entity>
Streptococcus pneumoniae

>  <MIC [µg/mL]>
32

$$$$
>  <query_smiles>
CCCNC(=O)O[C@H]1[C@H](C)O[C@@H](O[C@H]2[C@H](C)[C@@H](O[C@@H]3O[C@H](C)C[C@H](N(C)C)[C@H]3O)[C@](C)(OC)C[C@@H](C)C(=O)[C@H](C)[C@@H](O)[C@](C)(O)[C@@H](CC)OC(=O)[C@@H]2C)C[C@@]1(C)OC

>  <target_entity>
Streptococcus pneumoniae

>  <MIC [µg/mL]>
64

$$$$
>  <query_smiles>
CC[C@H]1OC(=O)[C@H](C)[C@@H](O[C@H]2C[C@@](C)(OC)[C@@H](O)[C@H](C)O2)[C@H](C)[C@@H](O[C@@H]2O[C@H](C)C[C@H](N(C)C)[C@H]2O)[C@](C)(OC)C[C@@H](C)C(=O)[C@H](C)[C@@H](O)[C@]1(C)O

>  <target_entity>
Streptococcus pneumoniae

>  <MIC [µg/mL]>
64

$$$$
>  <query_smiles>
CC[C@H]1OC(=O)[C@H](C)[C@@H](O[C@H]2C[C@@](C)(OC)[C@@H](OC(=O)NCCc3ccccc3)[C@H](C)O2)[C@H](C)[C@@H](O[C@@H]2O[C@H](C)C[C@H](N(C)C)[C@H]2O)[C@](C)(OC)C[C@@H](C)C(=O)[C@H](C)[C@@H](O)[C@]1(C)O

>  <target_entity>
Streptococcus pneumoniae

>  <MIC [µg/mL]>
16

$$$$
>  <query_smiles>
CC[C@H]1OC(=O)[C@H](C)[C@@H](O[C@H]2C[C@@](C)(OC)[C@@H](O)[C@H](C)O2)[C@H](C)[C@@H](O[C@@H]2O[C@H](C)C[C@H](N(C)C)[C@H]2O)[C@](C)(O)C[C@@H](C)C(=O)[C@H](C)[C@@H](O)[C@]1(C)O

>  <target_entity>
Streptococcus pneumoniae

>  <MIC [µg/mL]>
128

$$$$
